These entries and their values trace back to patent US8580747B2.

List of half-life values.
# Stated Conditions: rat, in vivo, iv, 2 mg/kg
Bridge positions count the residues as written; N and C are the ends. Square brackets hold non-standard residues; d marks the D form. Peptide text beside a SMILES is read from it. * marks the point of attachment. Piperazin2one(3S-Bu,6R-CO) = CCCC[C@@H]1NC[C@H](C(=O)*)NC1=O; X1 = N=C(N)NCCC[C@H]1C(=O)N[C@@H](C(N)=O)CN1*; Nle = CCCC[C@H](N)C(=O)O; Orn = NCCC[C@H](N)C(=O)O
Quantity: half-life (min)

1) CCCC[C@@H]1NC[C@H](C(=O)N[C@H]2CSSC[C@@H](C(=O)N[C@@H](Cc3ccc(O)cc3)C(=O)N3C[C@H](C(N)=O)NC(=O)[C@@H]3CCCNC(=N)N)NC(=O)[C@H](CO)NC(=O)[C@H]([C@@H](C)CC)NC(=O)[C@H](CCCNC(=N)N)NC(=O)[C@H](CC(=O)O)NC(=O)[C@H](CCCC)NC(=O)[C@H](CCCNC(=N)N)NC(=O)CNC(=O)[C@@H](C)NC(=O)[C@H](Cc3ccccc3)NC(=O)[C@H](Cc3c[nH]cn3)NC2=O)NC1=O [1-68] = 18
2) CCCC[C@@H]1NC[C@H](C(=O)N[C@H]2CSSC[C@@H](C(=O)N[C@@H](Cc3ccc(O)cc3)C(=O)N3C[C@H](C(N)=O)NC(=O)[C@@H]3CCCNC(=N)N)NC(=O)[C@H](CO)NC(=O)[C@H]([C@@H](C)CC)NC(=O)[C@H](CCCNC(=N)N)NC(=O)[C@H](CC(=O)O)NC(=O)[C@H](CCCC)NC(=O)[C@H](CCCN)NC(=O)CNC(=O)CNC(=O)[C@H](Cc3ccccc3)NC(=O)[C@H](Cc3c[nH]cn3)NC2=O)NC1=O [1-54] ({Piperazin2one(3S-Bu,6R-CO)}-CHFGG[Orn][Nle]DRISCY-X1; disulfide 1-12) = 12
